Test system: NCI-H522 lung
Test: NCI tumour cell line growth inhibition, 48 h
# reported TGI; entries follow
Give the number; µM is assumed, so skip it.

Previously resolved entries follow.
CC(=O)NC1=CC(=O)C=C(Cl)C1=O yielded TGI of 84

compound COc1ccc2c(c1)O/C(=C\c1ccc([N+](=O)[O-])s1)C2=O , TGI observed: 0.738

For record O=C1C=C(OCC=C(Cl)Cl)C(=O)c2ccccc21 the listed TGI is 6.24

Reported TGI ( COC(=O)C1=C(O)C(C(=O)OC)[C@@]2(O)[C@@H](C(=O)OC)C(c3ccccc3Cl)C[C@@H]1[C@@H]2C(=O)OC (some centres not stated) ) = 12.8

Moving on to the next compound.
The value of TGI measured for the compound CCC12C=CCN3CCC4(C(=C(C(=O)OC)C1)Nc1ccccc14)[C@H]32 (some centres not stated) turned out to be 49.4
